assay-summary: qHTS RealTime-Glo MT Cell Viability Assay in HepG2 cells - 0 hour (AID 1224889); further: nearly all actives have a fitted effect of over 50% in size
assay-setup: RealTime-Glo luminescence; series mostly up to 76.8 µM
Source text: U.S. Tox21 Program National Center for Advancing Translational Sciences [NCATS] NIH Chemical Genomics Center [NCGC] U.S. Environmental Protection Agency [EPA] National Institutes of Environmental Health Sciences [NIEHS] National Toxicology Program [NTP] U.S. Food and Drug Administration [FDA] Tox21 Assay Overview: Measure of cell viability is critical in the cell-base assay. Analysis of cell viability is necessary for the characterization of cell responses to cytotoxic drugs and environmental stress. […]
Inconclusive results are not listed. Active and inactive are the calls of the source. The call rests on the fitted dose curve; in most records, active means well fitted cell-killing curve with a large enough effect in the repeat runs; inconclusive means weak or mixed curves, or effect the other way; inactive means flat fitted curve, though single readings scatter.
Choose one outcome from this list and give only that: yes (1) (active), no (0) (inactive)

{"compound": "[CH3][Sn]([CH3])([Cl])[Cl]", "classification": "no (0)"}
{"compound": "OCCCBr", "classification": "no (0)"}
{"compound": "N#Cc1ccc(Cl)cc1", "classification": "no (0)"}
{"compound": "CCOC(=O)CBr", "classification": "no (0)"}
{"compound": "CC(C)(CCl)C(=O)Cl", "classification": "no (0)"}
{"compound": "CC[C@H]1C[C@H]2[C@@H]3CCC4=CC(=O)CC[C@@H]4[C@H]3CC[C@]2(C)[C@H]1O", "classification": "no (0)"}
{"compound": "O=C(CCl)c1ccc(Cl)cc1Cl", "classification": "no (0)"}
{"compound": "Brc1ccccc1", "classification": "no (0)"}

Enquiry: Given C=CCOC(C)=O , state the outcome it received in this test.
Return: yes (1)

Enquiry: Given BrCC(Br)C1CCC(Br)C(Br)C1 (stereo not drawn) , state the outcome it received in this test.
Return: no (0)

Enquiry: Given CCCC(Cn1cncn1)c1ccc(Cl)cc1Cl (stereo not drawn) , state the outcome it received in this test.
Return: no (0)

Enquiry: Given CC(C)N(C(=O)COc1nnc(C(F)(F)F)s1)c1ccc(F)cc1 , state the outcome it received in this test.
Return: no (0)

Enquiry: Given COc1cc(CC(C)N)cc2c1OCO2 (stereo not drawn) , state the outcome it received in this test.
Return: no (0)
